B1: factor inhibiting HIF-1 (FIH-1), full-length [human] / Mint3NT, N-terminal fragment (1–214) of Mint3 [human] (parent)
chain 1: MDFPTISRSPSGPPAMDLEGPRDILVPSEDLTPDSQWDPMPGGPGSLSRMELDESSLQELVQQFEALPGDLVGPSPGGAPCPLHIATGHGLASQEIADAHGLLSAEAGRDDLLGLLHCEECPPSQTGPEEPLEPAPRLLQPPEDPDEDSDSPEWVEGASAEQEGSRSSSSSPEPWLETVPLVTPEEPPAGAQSPETLASYPAPQEVPGPCDHED
chain 2: MAATAAEAVASGSGEPREEAGALGPAWDESQLRSYSFPTRPIPRLSQSDPRAEELIENEEPVVLTDTNLVYPALKWDLEYLQENIGNGDFSVYSASTHKFLYYDEKKMANFQNFKPRSNREEMKFHEFVEKLQDIQQRGGEERLYLQQTLNDTVGRKIVMDFLGFNWNWINKQQGKRGWGQLTSNLLLIGMEGNVTPAHYDEQQNFFAQIKGYKRCILFPPDQFECLYPYPVHHPCDRQSQVDFDNPDYERFPNFQNVVGYETVVGPGDVLYIPMYWWHHIESLLNGGITITVNFWYKGAPTPKRIEYPLKAHQKVAIMRNIEKMLGEALGNPQEVGPLLNTMIKGRYN

- Variants of: B1
- assayOverview: ITC
- experimentalParameters: with Mint3NT, measured three times for each FIH-1 mutant
parameterMeasured: screen value (kcal/mol)

[[record]]
mutantlabel = "chain 2 E250A"
valuereported = 20.1

[[record]]
mutantlabel = "chain 2 N171A"
valuereported = 21.4

[[record]]
mutantlabel = "chain 2 K75A"
valuereported = 20.2

[[record]]
mutantlabel = "chain 2 Y71A"
valuereported = -28.9

[[record]]
mutantlabel = "chain 2 E79A"
valuereported = -28.5


[P] chain 2 D248A
[Q] chain 2 E29A
// which entry reports the smaller screen value, P or Q ? Use the label to indicate which entry you chose.
P

The measured values listed here are drawn from paper PMC8571082.
